The origin of these recorded values is BigSolDB 2.1.

# experimental-conditions: in p-xylene, 340.1 K
assay-readout: solubility (mole fraction)
Numbers only.

Req: Which value of solubility (mole fraction) has been reported for `CC1=CC(=O)c2ccccc2C1=O` in the records?
Resp: 0.39

====

# experimental-conditions: in ethylbenzene, 335.44 K
assay-readout: solubility (mole fraction)
Answers are plain numbers.

Req: Item `CC1=CC(=O)c2ccccc2C1=O` has what recorded solubility (mole fraction)?
Resp: 0.297

====

# experimental-conditions: in o-xylene, 334.23 K
assay-readout: solubility (mole fraction)
One number for each entry.

Req: Form field: reported solubility (mole fraction) of `CC1=CC(=O)c2ccccc2C1=O`
Resp: 0.34

====

# experimental-conditions: in benzene, 309.71 K
assay-readout: solubility (mole fraction)

Req: Could you share which solubility (mole fraction) value was measured for `CC1=CC(=O)c2ccccc2C1=O` ?
Resp: 0.152
